meta.source: patent US8637542B2

target: mTORC (Homo sapiens)
Sequence (P42345 1360-2549 limits assumed): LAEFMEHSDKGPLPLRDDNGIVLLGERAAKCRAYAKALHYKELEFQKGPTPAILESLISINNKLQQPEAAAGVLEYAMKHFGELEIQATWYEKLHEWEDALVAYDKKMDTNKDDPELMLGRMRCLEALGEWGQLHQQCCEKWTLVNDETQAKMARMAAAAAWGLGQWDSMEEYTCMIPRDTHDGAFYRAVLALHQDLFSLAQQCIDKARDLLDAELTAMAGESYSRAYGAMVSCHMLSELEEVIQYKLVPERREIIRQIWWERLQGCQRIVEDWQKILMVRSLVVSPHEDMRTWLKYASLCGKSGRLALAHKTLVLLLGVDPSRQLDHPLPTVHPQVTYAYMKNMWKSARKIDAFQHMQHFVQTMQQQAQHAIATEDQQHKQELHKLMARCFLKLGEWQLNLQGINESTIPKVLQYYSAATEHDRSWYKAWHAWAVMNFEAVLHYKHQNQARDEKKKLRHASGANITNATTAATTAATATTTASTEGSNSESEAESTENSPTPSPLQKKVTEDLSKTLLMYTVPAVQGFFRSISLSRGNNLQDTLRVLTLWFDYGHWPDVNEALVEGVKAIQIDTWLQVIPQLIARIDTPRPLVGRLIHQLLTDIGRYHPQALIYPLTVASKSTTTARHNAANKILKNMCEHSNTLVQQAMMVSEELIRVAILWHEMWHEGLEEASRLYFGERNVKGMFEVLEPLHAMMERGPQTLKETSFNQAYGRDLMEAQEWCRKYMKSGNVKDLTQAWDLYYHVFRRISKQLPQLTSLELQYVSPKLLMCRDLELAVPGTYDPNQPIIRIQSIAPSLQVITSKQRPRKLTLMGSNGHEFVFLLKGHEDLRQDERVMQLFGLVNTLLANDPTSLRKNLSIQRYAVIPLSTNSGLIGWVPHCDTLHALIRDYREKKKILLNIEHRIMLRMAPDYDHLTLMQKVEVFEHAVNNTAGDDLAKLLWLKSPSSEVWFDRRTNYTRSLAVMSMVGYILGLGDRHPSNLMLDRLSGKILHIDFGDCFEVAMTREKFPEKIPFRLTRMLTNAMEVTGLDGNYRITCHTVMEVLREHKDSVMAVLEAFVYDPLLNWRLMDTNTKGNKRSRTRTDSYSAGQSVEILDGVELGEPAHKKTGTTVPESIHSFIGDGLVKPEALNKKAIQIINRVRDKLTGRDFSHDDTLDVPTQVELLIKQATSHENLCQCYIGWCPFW
measured.quantity: IC50

Input line: Item under review: CC(C)n1nc(-c2ccc3onc(N)c3c2)c2c(N)nccc21 [Compound 2] . Reported IC50?
Output line: > 1 µM

Input line: Suppose we examine the compound CC(C)n1nc(-c2cnc3[nH]ccc3c2)c2c(N)nccc21 [Compound 3] ; what IC50 value has been reported?
Output line: > 1 µM

Input line: Could you tell me which IC50 is on file for CC(C)n1nc(-c2cc3cc(O)ccc3[nH]2)c2c(N)nccc21 [Compound 1] ?
Output line: ≤ 1 µM

Input line: Tell me the measured IC50 of CC(C)n1nc(-c2ccc3oc(N)nc3c2)c2c(N)nccc21 [Compound 4] , please.
Output line: ≤ 1 µM
